Test system: HBV core protein variant Y118F
Assay: Antiviral effect against core variants, transfected HepG2 cells
Assay type: cell-based, HBV genotype D
Settings: Hepatitis B virus, HepG2, read-out: EC50 ± StD (nM)
Description: HepG2 cell line was used for HBV genotypes and core variants inhibition assays. HepG2 cell line is maintained in DMEM supplemented with 10% of fetal bovine serum, 1% of glutamine and 1% of penicillin/streptomycin. HepG2 cells were seeded in polylysine coated 96 multiwell plates at a density of 2*10^4 cells/well and incubated overnight at 37° C. […] Quantification of extracellular HBV DNA with direct qPCR was performed as previously described. […]
READOUT: EC50 (nM)
Give bare numbers, in nM.

Q: What value of measured EC50 is listed for "Cc1cc(NC(=O)c2c3c(cn2C)S(=O)(=O)N[C@H]2CN(C(=O)C(=O)N[C@@H](C)C(F)(F)F)C[C@H]2CO3)ccc1F" ?
A: 6.37

* * *

tested on: HBV core protein variant F23Y; test: Antiviral effect against core variants, transfected HepG2 cells; type: cell-based, HBV genotype D; settings: Hepatitis B virus, HepG2, read-out: EC50 ± StD (nM)
READOUT: EC50 (nM)
One number for each entry, in nM.

Q: Entry Cc1cc(NC(=O)c2c3c(cn2C)S(=O)(=O)N[C@H]2CN(C(=O)C(=O)N[C@@H](C)C(F)(F)F)C[C@H]2CO3)ccc1F [Example E15] : reported EC50 = ?
A: 6.33

* * *

test system: HBV genotype B2; experiment: Antiviral effect on HBV genotypes, transiently transfected HepG2 cells; format: cell-based; conditions: Hepatitis B virus, HepG2, read-out: EC50 ± StD (nM)
READOUT: EC50 (nM)
One number for each entry, in nM.

Q: What value of EC50 has been recorded for this entry: "Cc1cc(NC(=O)c2c3c(cn2C)S(=O)(=O)N[C@H]2CN(C(=O)C(=O)N[C@@H](C)C(F)(F)F)C[C@H]2CO3)ccc1F"
A: 1.58

* * *

system: HBV genotype D; assay: Antiviral effect on HBV genotypes, transiently transfected HepG2 cells; format: cell-based; details: Hepatitis B virus, HepG2, read-out: EC50 ± StD (nM)
READOUT: EC50 (nM)
One number for each entry, in nM.

Q: Requested field: EC50. Item: Cc1cc(NC(=O)c2c3c(cn2C)S(=O)(=O)N[C@H]2CN(C(=O)C(=O)N[C@@H](C)C(F)(F)F)C[C@H]2CO3)ccc1F [Example E15]
A: 0.94

* * *

test system: HBV core protein variant T128I; experiment: Antiviral effect against core variants, transfected HepG2 cells; type: cell-based, HBV genotype D; settings: Hepatitis B virus, HepG2, read-out: EC50 ± StD (nM)
READOUT: EC50

Q: Request: EC50, test system HBV core protein variant T128I, entry Cc1cc(NC(=O)c2c3c(cn2C)S(=O)(=O)N[C@H]2CN(C(=O)C(=O)N[C@@H](C)C(F)(F)F)C[C@H]2CO3)ccc1F [Example E15]
A: 8.91 nM

* * *

tested on: HBV genotype A2; experiment: Antiviral effect on HBV genotypes, transiently transfected HepG2 cells; format: cell-based; details: Hepatitis B virus, HepG2, read-out: EC50 ± StD (nM)
READOUT: EC50

Q: Which measured EC50 belongs to "Cc1cc(NC(=O)c2c3c(cn2C)S(=O)(=O)N[C@H]2CN(C(=O)C(=O)N[C@@H](C)C(F)(F)F)C[C@H]2CO3)ccc1F" , tested on HBV genotype A2?
A: 2.14 nM

* * *

Tested on: HBV core protein variant L37Q
Experiment: Antiviral effect against core variants, transfected HepG2 cells
Type: cell-based, HBV genotype D
Details: Hepatitis B virus, HepG2, read-out: EC50 ± StD (nM)
Protocol: HepG2 cell line was used for HBV genotypes and core variants inhibition assays. HepG2 cell line is maintained in DMEM supplemented with 10% of fetal bovine serum, 1% of glutamine and 1% of penicillin/streptomycin. HepG2 cells were seeded in polylysine coated 96 multiwell plates at a density of 2*10^4 cells/well and incubated overnight at 37° C. […] Quantification of extracellular HBV DNA with direct qPCR was performed as previously described. […]
READOUT: EC50 (nM)
Give bare numbers, in nM.

Q: Returns the measured EC50 for the input compound. Input: "Cc1cc(NC(=O)c2c3c(cn2C)S(=O)(=O)N[C@H]2CN(C(=O)C(=O)N[C@@H](C)C(F)(F)F)C[C@H]2CO3)ccc1F"
A: 8.72

* * *

tested on: HBV genotype C2; experiment: Antiviral effect on HBV genotypes, transiently transfected HepG2 cells; format: cell-based; settings: Hepatitis B virus, HepG2, read-out: EC50 ± StD (nM)
READOUT: EC50 (nM)
Give bare numbers, in nM.

Q: Given the entry Cc1cc(NC(=O)c2c3c(cn2C)S(=O)(=O)N[C@H]2CN(C(=O)C(=O)N[C@@H](C)C(F)(F)F)C[C@H]2CO3)ccc1F [Example E15] , what EC50 was observed with HBV genotype C2?
A: 0.72
